Exercise: state measured abundance fitness for each of the variants provided.
B1: Peroxisome proliferator-activated receptor delta, residues 71 to 145; numbered along this chain, Q03181 (parent)
chain: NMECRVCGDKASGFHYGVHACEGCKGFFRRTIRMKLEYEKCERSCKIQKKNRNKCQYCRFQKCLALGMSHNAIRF

Variants of: B1
Assay: abundance fitness (aPCA) (normalised: wild type 0, dead -1); higher = more abundant; growth selection in yeast, the domain comes from the species named
Details: Homo sapiens
Numbers only.

Examples with their reported abundance fitness follow.
C55Y; -0.676
E37V; -0.042
G67W; -0.666

Each variant below has a reported value. Please supply its abundance fitness.
1. H19K
2. C4R
3. Y38V
4. C21E
5. E3W

1: -0.047; 2: -0.558; 3: -0.74; 4: -0.847; 5: -0.176

Each variant below has a reported value. Please supply its abundance fitness.
1. Y57Q
2. K46E
3. C21P
4. L36P
5. R74A
6. F14Q

1: -0.862; 2: 0.124; 3: -1.14; 4: -0.374; 5: 0.079; 6: -0.064

Each variant below has a reported value. Please supply its abundance fitness.
1. L66R
2. R74K
3. R59P
4. E3S
5. N51L
6. G13N
7. Y38I
8. F60K

-0.315
0.067
-0.903
-0.033
-0.133
-0.01
-0.483
-0.742

Each variant below has a reported value. Please supply its abundance fitness.
1. V18A
2. G8K
3. K25C
4. H19M
5. R29T

-0.104
-0.563
-0.014
0.122
0.197
